test: in vitro; design: Viability of infected HeLa host cells, resazurin conversion, bulk resorufin fluorescence relative to DMSO; details: human, hela cells; bulk resorufin, mean of 3
The label T is reserved for viability at 28.5 h, 0.0123333 µM strictly under 90%; F covers values equal to or above it.

| molecule | class |
| --- | --- |
| CCCCc1ccc(Nc2csc(N)n2)cc1 [c11e] | F |

INPUT: Dear reviewer, please state whether O=C(CC1CCN(CCc2ccccc2)CC1)Nc1cccc(-n2cccn2)c1 [c4e] has viability at 28.5 h, 0.0123333 µM strictly beneath 90%.
OUTPUT: F

INPUT: Is viability at 28.5 h, 0.0123333 µM strictly under 90% for the entry CCOc1ccsc1C(=O)NC1Cc2ccccc2C1 [c16e] ?
OUTPUT: T

INPUT: hey, is viability at 28.5 h, 0.0123333 µM for O=C(NCCc1c[nH]c2ccc(Cl)cc12)c1c(F)ccc(Cl)c1F [c42e] lower than 90% or not?
OUTPUT: F

INPUT: Does this molecule meet the criterion viability at 28.5 h, 0.0123333 µM < 90%? COc1cccc(CNC(C(=O)O)c2ccc3c(c2)OCO3)c1 (stereo not drawn) [c40e]
OUTPUT: F

INPUT: Threshold test, viability at 28.5 h, 0.0123333 µM < 90%: CC(=O)N1CCc2sccc2C1c1ccccc1NCc1ccoc1 (stereo not drawn) [c28e]
OUTPUT: F

These measurements were taken from paper PMC12040169.
